Values from patent US4670419A

# Protocol description: in vivo
# Test conditions: SD, rat, inhaled or intranasal, 100 ug/kg, Concentration in Serum
Readout kind: level at 4 h (ng/mL)
Give the value, in units of ng/mL, as a plain number.

Task: Give its level at 4 h value. Item: CCNC(=O)[C@@H]1CCCN1C(=O)[C@H](CCCNC(=N)N)NC(=O)[C@H](CC(C)C)NC(=O)[C@@H](CC(C)C)NC(=O)[C@H](Cc1ccc(O)cc1)NC(=O)[C@H](CO)NC(=O)[C@H](Cc1c[nH]c2ccccc12)NC(=O)[C@H](Cc1c[nH]cn1)NC(=O)[C@@H]1CCC(=O)N1 [TAP-144]
Result: 3.9

###

# Protocol description: in vivo
# Test conditions: female, SD, rat, iv, 100 ug/kg
Readout kind: level at 1 h (ng/mL)
Supply the numeric figure in ng/mL, leaving out any unit text.

Task: What does the record list as level at 1 h for `CCNC(=O)[C@@H]1CCCN1C(=O)[C@H](CCCNC(=N)N)NC(=O)[C@H](CC(C)C)NC(=O)[C@@H](CC(C)C)NC(=O)[C@H](Cc1ccc(O)cc1)NC(=O)[C@H](CO)NC(=O)[C@H](Cc1c[nH]c2ccccc12)NC(=O)[C@H](Cc1c[nH]cn1)NC(=O)[C@@H]1CCC(=O)N1` ?
Result: 39.3

###

# Protocol description: in vivo
# Test conditions: SD (Sprague-Dawley), rat, sc, 100 ug/kg, Concentration in Serum
Readout kind: level at 0.5 h (ng/mL)
// return numeric value only (unit: ng/mL, not printed)

Task: Tell me the measured level at 0.5 h of `CCNC(=O)[C@@H]1CCCN1C(=O)[C@H](CCCNC(=N)N)NC(=O)[C@H](CC(C)C)NC(=O)[C@@H](CC(C)C)NC(=O)[C@H](Cc1ccc(O)cc1)NC(=O)[C@H](CO)NC(=O)[C@H](Cc1c[nH]c2ccccc12)NC(=O)[C@H](Cc1c[nH]cn1)NC(=O)[C@@H]1CCC(=O)N1` , please.
Result: 44

###

# Protocol description: in vivo
# Test conditions: female, SD, rat, iv, 100 ug/kg
Readout kind: level at 5 min
Please give the number followed by its unit.

Task: // query level at 5 min value for entry `CCNC(=O)[C@@H]1CCCN1C(=O)[C@H](CCCNC(=N)N)NC(=O)[C@H](CC(C)C)NC(=O)[C@@H](CC(C)C)NC(=O)[C@H](Cc1ccc(O)cc1)NC(=O)[C@H](CO)NC(=O)[C@H](Cc1c[nH]c2ccccc12)NC(=O)[C@H](Cc1c[nH]cn1)NC(=O)[C@@H]1CCC(=O)N1`
Result: 212 ng/mL

###

# Protocol description: in vivo
# Test conditions: SD (Sprague-Dawley), rat, sc, 100 ug/kg, Concentration in Serum
# Description: In 0.1 ml of physiological saline are dissolved 100 μg of TAP-144 and 5 mg of α-cyclodextrin, and in the manner of Experimental Example 1, the 0.1 ml/kg equivalent of the solution is administered into the nasal cavity (the dose of TAP-144: 100 μg/kg).
Readout kind: level at 1 h (ng/mL)
Number only, in ng/mL; omit the unit.

Task: Sample CCNC(=O)[C@@H]1CCCN1C(=O)[C@H](CCCNC(=N)N)NC(=O)[C@H](CC(C)C)NC(=O)[C@@H](CC(C)C)NC(=O)[C@H](Cc1ccc(O)cc1)NC(=O)[C@H](CO)NC(=O)[C@H](Cc1c[nH]c2ccccc12)NC(=O)[C@H](Cc1c[nH]cn1)NC(=O)[C@@H]1CCC(=O)N1 [TAP-144] — what was its level at 1 h?
Result: 40.2

###

# Protocol description: in vivo
# Test conditions: female, SD, rat, iv, 100 ug/kg
Readout kind: level at 0.5 h (ng/mL)
Unit ng/mL implied. Number only.

Task: Value lookup for level at 0.5 h; key = `CCNC(=O)[C@@H]1CCCN1C(=O)[C@H](CCCNC(=N)N)NC(=O)[C@H](CC(C)C)NC(=O)[C@@H](CC(C)C)NC(=O)[C@H](Cc1ccc(O)cc1)NC(=O)[C@H](CO)NC(=O)[C@H](Cc1c[nH]c2ccccc12)NC(=O)[C@H](Cc1c[nH]cn1)NC(=O)[C@@H]1CCC(=O)N1`
Result: 74.2

###

# Protocol description: in vivo
# Test conditions: female, SD, rat, iv, 100 ug/kg
Readout kind: level at 6 h

Task: What measured level at 6 h goes with CCNC(=O)[C@@H]1CCCN1C(=O)[C@H](CCCNC(=N)N)NC(=O)[C@H](CC(C)C)NC(=O)[C@@H](CC(C)C)NC(=O)[C@H](Cc1ccc(O)cc1)NC(=O)[C@H](CO)NC(=O)[C@H](Cc1c[nH]c2ccccc12)NC(=O)[C@H](Cc1c[nH]cn1)NC(=O)[C@@H]1CCC(=O)N1 [TAP-144] ?
Result: < 0.13 ng/mL
